- target entity: Thyroid hormone receptor alpha (Homo sapiens)
- Sequence (P10827 whole entry): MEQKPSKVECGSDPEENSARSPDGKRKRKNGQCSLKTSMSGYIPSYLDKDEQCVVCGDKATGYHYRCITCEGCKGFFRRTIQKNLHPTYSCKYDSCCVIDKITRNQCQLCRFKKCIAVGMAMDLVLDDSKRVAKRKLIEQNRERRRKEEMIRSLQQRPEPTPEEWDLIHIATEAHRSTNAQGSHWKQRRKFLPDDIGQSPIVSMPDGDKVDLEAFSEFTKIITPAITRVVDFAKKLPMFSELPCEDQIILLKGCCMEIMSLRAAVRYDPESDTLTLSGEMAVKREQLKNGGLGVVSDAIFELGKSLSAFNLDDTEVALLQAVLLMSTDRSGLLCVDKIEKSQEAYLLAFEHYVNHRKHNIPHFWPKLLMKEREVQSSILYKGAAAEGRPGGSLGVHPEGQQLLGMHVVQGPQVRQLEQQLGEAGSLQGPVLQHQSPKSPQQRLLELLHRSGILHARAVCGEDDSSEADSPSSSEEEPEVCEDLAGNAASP
- experiment description: THR Reporter Gene Method
EC50 listing for selected compounds.

Prompt: Retrieve EC50 measured for O=C(Nc1cc(Cl)c(-n2ccc3c2ccc(=O)n3C2CCOCC2)c(Cl)c1)c1noc(=O)[nH]1 and print it.
Completion: > 10 µM

Prompt: Retrieve EC50 measured for CC(C)n1c(=O)ccc2c1cnn2-c1c(Cl)cc(NC(=O)c2noc(=O)[nH]2)cc1Cl and print it.
Completion: > 11 µM

Prompt: Retrieve EC50 measured for COc1ccc2c(ccn2-c2c(Cl)cc(-n3nc(C#N)c(=O)[nH]c3=O)cc2Cl)c1 and print it.
Completion: > 33 µM

Prompt: Retrieve EC50 measured for COc1ccc2c(ccn2-c2c(Cl)cc(-n3nc(C#N)c(=O)[nH]c3=O)cc2Cl)n1 and print it.
Completion: > 33 µM
